Sourced from ChEMBL document CHEMBL1136339

assay: Specific activity of 14CO2 formation from 1-[14C]-2OG corrected for uncoupled turnover in presence of anthocyanin synthase(ANS); assay type: functional
measurement.label: Specific activity (ukat kg-1)
Report as a plain number; the unit ukat kg-1 is understood.

Completed entries (count: 3):
>>> print(df.to_string())
                                   molecule  val
0  Oc1cc(O)c2c(c1)O[C@H](c1ccc(O)c(O)c1)[C@@H](O)[C@@H]2O  342
1  Oc1cc(O)c2c(c1)O[C@@H](c1ccc(O)c(O)c1)[C@H](O)[C@@H]2O.Oc1cc(O)c2c(c1)O[C@H](c1ccc(O)c(O)c1)[C@@H](O)[C@H]2O (racemic)   41
2  Oc1cc(O)c2c(c1)O[C@@H](c1ccc(O)c(O)c1)[C@H](O)[C@H]2O.Oc1cc(O)c2c(c1)O[C@H](c1ccc(O)c(O)c1)[C@@H](O)[C@@H]2O (racemic)  145

Next molecule, Specific activity to be filled in.
Check the records and state Specific activity for Oc1cc(O)c2c(c1)O[C@H](c1ccc(O)c(O)c1)[C@@H](O)[C@H]2O
138
